# TESTED SYSTEM: Glucocorticoid receptor (Homo sapiens) (UniProt P04150)
# Sequence (P04150 whole entry, looked up): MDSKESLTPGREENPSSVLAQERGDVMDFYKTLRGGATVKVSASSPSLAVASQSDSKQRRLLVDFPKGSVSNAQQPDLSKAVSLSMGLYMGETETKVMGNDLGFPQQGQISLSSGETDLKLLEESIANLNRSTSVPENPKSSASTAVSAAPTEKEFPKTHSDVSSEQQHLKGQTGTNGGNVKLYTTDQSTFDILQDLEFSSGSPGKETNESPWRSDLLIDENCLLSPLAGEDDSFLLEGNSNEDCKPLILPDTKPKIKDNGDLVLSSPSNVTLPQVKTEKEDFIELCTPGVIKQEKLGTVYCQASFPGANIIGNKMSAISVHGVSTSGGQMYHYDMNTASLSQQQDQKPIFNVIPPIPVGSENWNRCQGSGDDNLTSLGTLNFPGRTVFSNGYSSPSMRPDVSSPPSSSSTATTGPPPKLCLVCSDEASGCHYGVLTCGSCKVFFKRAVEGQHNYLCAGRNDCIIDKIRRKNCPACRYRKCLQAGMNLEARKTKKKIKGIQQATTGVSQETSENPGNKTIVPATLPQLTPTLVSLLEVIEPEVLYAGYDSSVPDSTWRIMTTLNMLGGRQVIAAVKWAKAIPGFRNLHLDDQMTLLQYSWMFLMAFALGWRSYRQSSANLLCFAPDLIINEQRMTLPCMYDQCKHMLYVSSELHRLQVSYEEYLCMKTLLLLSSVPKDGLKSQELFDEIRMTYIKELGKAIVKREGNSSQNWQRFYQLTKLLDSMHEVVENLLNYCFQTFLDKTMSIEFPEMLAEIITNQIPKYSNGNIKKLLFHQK
# RUN DESCRIPTION: GR-GFP Redistribution (AID 450)
# STATED CONDITIONS: U2OS GR-GFP nuclear translocation, laser cytometry, 2 h
Calls of active or inactive are those of the source.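 How the source made its calls: active means compounds whose dose series gives a full or clear partial fitted curve of increased nuclear translocation; inconclusive means weak partial curve or effect only at the top dose; inactive means no dose-dependent translocation response.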
Write down one outcome, taken from yes for active, no for inactive

**Q:** Outcome logged for "COCCCC/C(=N\OCCN)c1ccc(C(F)(F)F)cc1" in this assay:
**A:** no

**Q:** Outcome logged for "C[C@]12CCC(=O)C=C1CC[C@@H]1[C@@H]2C(=O)C[C@@]2(C)[C@H]1CC[C@]2(O)C(=O)CO" in this assay:
**A:** yes

**Q:** Outcome logged for "CCNC(=O)N1CCN(CCCC(c2ccc(F)cc2)c2ccc(F)cc2)CC1" in this assay:
**A:** no

**Q:** Outcome logged for "Fc1ccc(C(c2ccc(F)cc2)N2CCN(C/C=C/c3ccccc3)CC2)cc1" in this assay:
**A:** no

**Q:** Outcome logged for COCCc1ccc(OCC(O)CNC(C)C)cc1 (stereo unspecified) in this assay:
**A:** no

**Q:** Outcome logged for CCCN(CCC)C(=O)C(CCC(=O)O)NC(=O)c1ccccc1 (stereo unspecified) in this assay:
**A:** no

**Q:** Outcome logged for "C[C@]12CCC(=O)C=C1CC[C@@H]1[C@@H]2CC[C@@]2(C)[C@H]1CC[C@]2(O)C(=O)CO" in this assay:
**A:** yes

**Q:** Outcome logged for COc1ccc(CCN(C)CCCC(C#N)(c2cc(OC)c(OC)c(OC)c2)C(C)C)cc1OC (stereo unspecified) in this assay:
**A:** no

**Q:** Outcome logged for "CC(=O)OCC1=C(C(=O)O)N2C(=O)[C@@H](NC(=O)Cc3cccs3)[C@H]2SC1" in this assay:
**A:** no

**Q:** Outcome logged for CCOC(=O)C1=C(C)NC(C)=C(C(=O)OC)C1c1cccc(Cl)c1Cl (stereo unspecified) in this assay:
**A:** no

**Q:** Outcome logged for "CCc1cccc(N(C)C(N)=Nc2cccc3ccccc23)c1" in this assay:
**A:** no

**Q:** Outcome logged for "c1cc(CN2CCCCC2)cc(OCCCNc2nc3ccccc3s2)c1" in this assay:
**A:** no

**Q:** Outcome logged for "CCCN(CCC)CCc1cccc2c1CC(=O)N2" in this assay:
**A:** no

**Q:** Outcome logged for "CCC(=O)c1ccc2c(c1)N(CCCN(C)C)c1ccccc1S2" in this assay:
**A:** no

**Q:** Outcome logged for "C[n+]1cc2c3c(ccc2c2ccc4cc5c(cc4c21)OCO5)OCO3" in this assay:
**A:** yes

**Q:** Outcome logged for "FC(F)(F)c1ccccc1-n1ccnc1" in this assay:
**A:** no

###

# TESTED SYSTEM: Ubiquitin carboxyl-terminal hydrolase 1 (Homo sapiens) (UniProt O94782)
# Sequence (O94782 whole entry, looked up): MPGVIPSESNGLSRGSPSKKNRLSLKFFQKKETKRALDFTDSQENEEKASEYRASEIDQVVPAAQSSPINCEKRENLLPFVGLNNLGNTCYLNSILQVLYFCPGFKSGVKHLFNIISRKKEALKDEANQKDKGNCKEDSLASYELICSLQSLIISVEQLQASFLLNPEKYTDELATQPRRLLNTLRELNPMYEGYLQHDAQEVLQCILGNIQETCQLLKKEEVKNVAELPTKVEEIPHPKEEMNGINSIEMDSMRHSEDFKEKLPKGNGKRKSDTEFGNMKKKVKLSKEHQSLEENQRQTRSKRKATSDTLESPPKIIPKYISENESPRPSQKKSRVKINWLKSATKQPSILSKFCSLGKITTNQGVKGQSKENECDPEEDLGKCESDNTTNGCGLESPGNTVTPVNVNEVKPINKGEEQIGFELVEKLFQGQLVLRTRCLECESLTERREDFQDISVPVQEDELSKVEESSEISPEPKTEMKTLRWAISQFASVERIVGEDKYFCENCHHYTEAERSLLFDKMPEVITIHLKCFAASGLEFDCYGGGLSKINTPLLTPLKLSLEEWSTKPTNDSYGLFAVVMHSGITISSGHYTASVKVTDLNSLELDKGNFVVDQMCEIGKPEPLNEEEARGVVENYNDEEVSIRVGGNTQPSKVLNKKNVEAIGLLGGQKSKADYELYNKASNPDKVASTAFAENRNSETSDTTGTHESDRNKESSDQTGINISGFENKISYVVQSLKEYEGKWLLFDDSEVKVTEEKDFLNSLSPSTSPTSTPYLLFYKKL
# RUN DESCRIPTION: Inhibitors of USP1/UAF1: Pilot qHTS (AID 504865);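 further: rhodamine fluorescence freed from ubiquitin-rhodamine substrate followed over time; top concentration of the series differs between compounds; nearly all actives have a fitted effect of over 35% in size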
# STATED CONDITIONS: purified USP1/UAF1, Ub-rhodamine cleavage fluorescence; series mostly up to 114 µM
Records with an inconclusive call do not appear. The source made the active and inactive calls. Calls follow the shape of the dose curve; as a rule, active = well fitted inhibition curve with a large enough effect; inconclusive = small, poorly fitted or top-dose-only effect; inactive = flat fitted curve, though single readings scatter.
PROPERTY LABEL: outcome

Examples from the recorded data:
Cc1nc2c([nH]1)c(=O)n(C)c(=O)n2Cc1ccco1
inactive
COc1cc(C(=O)OCCCN2CCCN(CCCOC(=O)c3cc(OC)c(OC)c(OC)c3)CC2)cc(OC)c1OC
inactive
CC(C)[N+](C)(CCOC(=O)C1c2ccccc2Oc2ccccc21)C(C)C
inactive
CCN1CCC[C@H]1CNC(=O)c1c(O)c(Cl)cc(Cl)c1OC
inactive

**Q:** Name the reported outcome value associated with the molecule "CCn1nc(C(=O)O)c(=O)c2cc3c(cc21)OCO3"
**A:** inactive
